# Test: Mouse Pharmacokinetic Profile (IP)
# Format: in vivo
Parameter: Brain Cmax (ng/g)
I only need the number, in ng/g, no unit after it.

Task item: // Brain Cmax lookup, key: `O=C(COc1cnc(N2C(=O)[C@@H]3[C@@H]4C=C[C@@H]([C@H]5C[C@@H]45)[C@@H]3C2=O)nc1)c1ccc(Cl)c(Cl)c1`
Reply: 978.2

Task item: So what's the measured Brain Cmax for this one? `O=C(COc1ccc(N2C(=O)[C@@H]3[C@@H]4C=C[C@@H]([C@H]5C[C@@H]45)[C@@H]3C2=O)nc1)c1ccc(Cl)c(Cl)c1`
Reply: 1044.17

Task item: I am curious: what Brain Cmax value has been reported for COc1ccc(C(=O)C2CC2c2ccc(N3C(=O)[C@@H]4[C@@H]5C=C[C@@H]([C@H]6C[C@@H]56)[C@@H]4C3=O)c(F)c2)cc1Cl (stereo partly shown) ?
Reply: 1113

Task item: For the molecule COc1ccc(C(=O)C2CC2c2ccc(N3C(=O)[C@@H]4[C@@H]5C=C[C@@H]([C@H]6C[C@@H]56)[C@@H]4C3=O)cc2)cc1 (stereo partly shown) , what Brain Cmax is on record?
Reply: 992

FYI, the data here is from patent US20250034091A1.
